Target: human purified sGC (Homo sapiens (Human), UniProt Q02108+Q02153)
Sequence (Q02153 whole entry): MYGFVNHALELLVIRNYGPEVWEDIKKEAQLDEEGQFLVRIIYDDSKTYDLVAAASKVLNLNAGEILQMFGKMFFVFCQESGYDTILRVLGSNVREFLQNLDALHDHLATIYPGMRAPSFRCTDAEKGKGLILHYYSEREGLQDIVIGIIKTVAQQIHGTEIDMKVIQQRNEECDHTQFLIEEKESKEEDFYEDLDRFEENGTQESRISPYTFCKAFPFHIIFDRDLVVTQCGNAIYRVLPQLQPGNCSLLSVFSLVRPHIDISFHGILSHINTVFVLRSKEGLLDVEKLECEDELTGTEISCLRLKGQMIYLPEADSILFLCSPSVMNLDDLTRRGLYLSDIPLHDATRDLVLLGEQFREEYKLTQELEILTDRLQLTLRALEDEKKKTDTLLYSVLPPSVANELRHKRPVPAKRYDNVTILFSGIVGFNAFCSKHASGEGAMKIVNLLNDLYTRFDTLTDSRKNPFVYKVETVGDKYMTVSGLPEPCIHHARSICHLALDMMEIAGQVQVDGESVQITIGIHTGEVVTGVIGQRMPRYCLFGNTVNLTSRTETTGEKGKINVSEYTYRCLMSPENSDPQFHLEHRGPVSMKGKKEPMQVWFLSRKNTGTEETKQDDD
Sequence (Q02108 whole entry): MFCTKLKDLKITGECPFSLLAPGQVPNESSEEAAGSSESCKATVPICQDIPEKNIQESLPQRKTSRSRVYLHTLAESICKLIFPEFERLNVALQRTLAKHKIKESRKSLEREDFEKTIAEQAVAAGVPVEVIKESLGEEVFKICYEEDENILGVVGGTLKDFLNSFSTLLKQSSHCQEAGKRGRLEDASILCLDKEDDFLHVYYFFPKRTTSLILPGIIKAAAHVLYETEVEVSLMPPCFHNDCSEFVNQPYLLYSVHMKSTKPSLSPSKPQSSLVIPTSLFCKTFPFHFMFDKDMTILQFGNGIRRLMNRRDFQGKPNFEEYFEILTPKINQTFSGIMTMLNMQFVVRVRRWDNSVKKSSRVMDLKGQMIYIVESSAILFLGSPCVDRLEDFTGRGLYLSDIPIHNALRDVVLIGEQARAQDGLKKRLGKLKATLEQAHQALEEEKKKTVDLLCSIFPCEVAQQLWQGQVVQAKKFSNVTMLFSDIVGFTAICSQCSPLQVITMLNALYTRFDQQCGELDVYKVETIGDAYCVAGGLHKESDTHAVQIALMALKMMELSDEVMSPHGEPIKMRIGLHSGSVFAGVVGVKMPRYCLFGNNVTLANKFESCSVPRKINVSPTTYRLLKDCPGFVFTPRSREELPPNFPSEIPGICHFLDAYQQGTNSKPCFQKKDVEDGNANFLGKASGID
Assay: Measurement of sGC activation (enzyme): cGMP produced by human purified sGC, HTRF
Conditions: concentration giving 50% of maximum activation, maximum activation of Example 102 taken as 100%
pEC50: −log10 of the molar value.
Each entry gets f if its pEC50 stays under 5, and t if its pEC50 is 5 or above.

Solved cases below.
[
  {
    "Compound": "Cc1nc2c(OCc3c(F)cccc3F)cccn2c1C(=O)N[C@@H](CO)c1ccccc1.Cl [Ex 119]",
    "Assigned label": "t"
  },
  {
    "Compound": "Cc1nc2c(OCc3c(F)cccc3F)cccn2c1C(=O)NC(CO)(CO)c1ccccc1.Cl [Ex 424]",
    "Assigned label": "t"
  },
  {
    "Compound": "Cc1nc2c(OCc3c(F)cccc3F)cccn2c1C(=O)N[C@H]1CCCN(S(N)(=O)=O)C1 [Ex 247]",
    "Assigned label": "t"
  },
  {
    "Compound": "Cc1nc2c(OCC3CCCCC3)cccn2c1C(=O)N[C@H]1CCN(C)C1 [Ex 341]",
    "Assigned label": "t"
  },
  {
    "Compound": "Cc1cccc2c1C[C@@H](C(=O)O)[C@@H]2NC(=O)c1c(C)nc2c(OCC3CCCCC3)cccn12 [Ex 693]",
    "Assigned label": "f"
  }
]

IN: Item Cc1nc2c(OCC3CCCCC3)cccn2c1C(=O)N[C@@H]1c2ccc(F)cc2C[C@H]1C(=O)O [Ex 706] with pEC50 of 5 or above?
OUT: t

IN: Would you kindly repeat that for Cc1nc2c(OCc3c(F)cccc3F)cccn2c1C(=O)N[C@@H]1c2ccccc2C[C@H]1O.Cl [Ex 430] ?
OUT: t

IN: Would you kindly repeat that for Cc1nc2c(OCC3CCCCC3)cccn2c1C(=O)N[C@H]1CCCN(C)C1 [Ex 226] ?
OUT: t

###

Molecular target: human purified sGC (Homo sapiens (Human), UniProt Q02108+Q02153)
Assay: Measurement of sGC activation (enzyme): cGMP produced by human purified sGC, HTRF
Settings: concentration giving 50% of maximum activation, maximum activation of Example 102 taken as 100%
pEC50: −log10 of the molar value.
Each entry gets FALSE if its pEC50 stays under 5, and TRUE if its pEC50 is 5 or above.

[
  {
    "Molecule": "Cc1nc2c(OCc3c(F)cccc3F)cccn2c1C(=O)N[C@H](c1ccccc1)[C@H](O)CO",
    "Assigned label": "TRUE"
  },
  {
    "Molecule": "Cc1nc2c(OCc3c(F)cccc3F)cccn2c1C(=O)N[C@@]1(c2ccccc2)C[C@@H](O)[C@@H](O)C1",
    "Assigned label": "FALSE"
  },
  {
    "Molecule": "Cc1nc2c(OCC3CCCCC3)cccn2c1C(=O)N[C@@H](CC(=O)O)CC(C)C",
    "Assigned label": "TRUE"
  }
]

IN: Item "Cc1nc2c(OCc3c(F)cccc3F)cccn2c1C(=O)NC(C)(C)CO" with pEC50 of 5 or above?
OUT: TRUE

###

Molecular target: human purified sGC (Homo sapiens (Human), UniProt Q02108+Q02153)
Experiment: Measurement of sGC activation (enzyme): cGMP produced by human purified sGC, HTRF
Conditions: concentration giving 50% of maximum activation, maximum activation of Example 102 taken as 100%
I'd appreciate it if you could label each record using EC50 and these ranges: low-valued (below 4 µM), mid-valued (4 µM to below 9 µM), high-valued (9 µM or more)

Solved cases below.
[
  {
    "Compound": "Cc1nc2c(OCC3CCCCC3)cccn2c1C(=O)N[C@H]1c2c(F)cccc2C[C@@H]1C(=O)O",
    "Assigned label": "high-valued"
  },
  {
    "Compound": "Cc1nc2c(OCC3CCCCC3)cccn2c1C(=O)N[C@@H]1c2ccccc2C[C@H]1C(=O)O",
    "Assigned label": "mid-valued"
  },
  {
    "Compound": "Cc1nc2c(OCc3c(F)cccc3F)cccn2c1C(=O)N[C@]1(c2ccccc2)C[C@@H](O)[C@@H](O)C1",
    "Assigned label": "low-valued"
  },
  {
    "Compound": "Cc1nc2c(OCc3c(F)cccc3F)cccn2c1C(=O)N[C@@H]1c2ccccc2[C@@H](O)[C@H]1O",
    "Assigned label": "low-valued"
  },
  {
    "Compound": "Cc1nc2c(OCC3CCCCC3)cccn2c1C(=O)N[C@@H](CC(=O)O)c1ccccc1",
    "Assigned label": "mid-valued"
  }
]

IN: Using the reported EC50, which band applies to Cc1nc2c(OCc3ccccc3F)cccn2c1C(=O)N[C@@H]1c2ccccc2[C@H](O)[C@H]1O (stereo in doubt) ?
OUT: mid-valued

IN: Would you kindly repeat that for "Cc1nc2c(OCc3c(F)cccc3F)cccn2c1C(=O)N[C@@H](CO)C(C)C" ?
OUT: mid-valued

IN: Would you kindly repeat that for "Cc1nc2c(OCc3c(F)cccc3F)cccn2c1C(=O)N[C@@H]1c2ccccc2C[C@H]1C(=O)O" ?
OUT: mid-valued

IN: Would you kindly repeat that for "Cc1cccc2c1C[C@@H](C(=O)O)[C@@H]2NC(=O)c1c(C)nc2c(OCc3c(F)cccc3F)cccn12" ?
OUT: high-valued

IN: Would you kindly repeat that for "Cc1nc2c(OCc3cccc(F)c3F)cccn2c1C(=O)NC(CO)(CO)c1ccccc1" ?
OUT: low-valued

IN: Would you kindly repeat that for "Cc1nc2c(OCc3c(F)cccc3F)cccn2c1C(=O)N[C@@H]1c2c(F)cccc2C[C@H]1C(=O)O" ?
OUT: high-valued

IN: Would you kindly repeat that for "Cc1nc2c(OCC3CCCCC3)cccn2c1C(=O)N[C@@H](C)c1cccc(C(=O)O)c1" ?
OUT: high-valued

IN: Would you kindly repeat that for "Cc1nc2c(OCc3c(F)cccc3F)cccn2c1C(=O)N[C@H]1CCCNC1" ?
OUT: mid-valued

IN: Would you kindly repeat that for "Cc1nc2c(OCC3CCCCC3)cccn2c1C(=O)N[C@@H](CC(=O)O)CC1CCC1" ?
OUT: low-valued

IN: Would you kindly repeat that for "Cc1nc2c(OCC3CCCCC3)cccn2c1C(=O)N[C@@H](CO)c1ccccc1" ?
OUT: low-valued

IN: Would you kindly repeat that for "Cc1nc2c(OCc3c(F)cccc3F)cccn2c1C(=O)N[C@H](C)CO" ?
OUT: high-valued

IN: Would you kindly repeat that for "Cc1nc2c(OCc3c(F)ccc(F)c3F)cccn2c1C(=O)N[C@@H]1c2ccccc2C[C@H]1C(=O)O" ?
OUT: mid-valued

###

Reported EC50 values for a set of compounds
Target: human purified sGC (Homo sapiens (Human), UniProt Q02108+Q02153)
Test: Measurement of sGC activation (enzyme): cGMP produced by human purified sGC, HTRF
Settings: concentration giving 50% of maximum activation, maximum activation of Example 102 taken as 100%
Experimental: The activity of sGC was evaluated by measuring the amount of a cyclic guanosine monophosphate (cGMP) which is produced by human purified sGC. A test compound was dissolved in DMSO and diluted 20-fold with ultrapure water. […] The quantitative determination of cGMP is using HTRF which based on the competition between sample cGMP and fluorescent dye labeled cGMP for binding to a cGMP-specific antibody. […] Furthermore, the EC50 [μM] value was calculated as another parameter for expressing sGC activation. […]
The reply should be a number in µM, with the unit left off.

[
  {
    "Compound": "Cc1nc2c(OCC3CCCCC3)cccn2c1C(=O)NC(CO)CO",
    "Observation type": "EC50",
    "Recorded measurement": 11
  }
]

IN: Can you share its EC50? I mean this compound: Cc1nc2c(OCc3cccc(F)c3F)cccn2c1C(=O)N[C@@H]1c2ccccc2[C@H](O)[C@H]1O (stereo in doubt)
OUT: 8.9

IN: Would you kindly repeat that for "Cc1nc2c(OCc3ccccc3F)cccn2c1C(=O)NC(CO)(CO)c1ccccc1" ?
OUT: 7.6

IN: Would you kindly repeat that for "Cc1nc2c(OCC3CCCCC3)cccn2c1C(=O)N[C@@H]1c2c(F)cccc2C[C@H]1C(=O)O" ?
OUT: 11
